Tested on: OE33
Experiment: cells
Conditions: Homo sapiens, OE33, 120 h
Description: Antiproliferative activity against human OE33 cells assessed as reduction in cell viability measured after 5 days by PrestoBlue reagent based fluorescence analysis
I'd be grateful if you could share measured EC50 for these entries.

Form entry - test system: OE33; read-out: EC50; molecule: CNc1ncc2c(/C=C/C(=O)N3CCC4(CC3)OCCO4)nn(Cc3cccc(C)c3)c2n1
830 nM

Form entry - test system: OE33; read-out: EC50; molecule: Nc1ncnc2c1c(/C=C/C(=O)N1CCCC1)nn2CC1CCCC1
~30000 nM

Form entry - test system: OE33; read-out: EC50; molecule: Nc1ncnc2c1c(/C=C/C(=O)N1CCC(c3ccccc3)CC1)nn2CC1CCCC1
~30000 nM

Form entry - test system: OE33; read-out: EC50; molecule: CNc1ncc2c(/C=C/C(=O)N3CCC(OC)CC3)nn(Cc3cccc(C)c3)c2n1
1800 nM

Form entry - test system: OE33; read-out: EC50; molecule: CNc1ncc2c(/C=C/C(=O)N3CCC(OC)CC3)nn(CC3CCCC3)c2n1
< 9000 nM

Form entry - test system: OE33; read-out: EC50; molecule: CNc1ncc2c(/C=C/C(=O)N3CCC4(CC3)OCCO4)nn(Cc3cccc(C(F)(F)F)c3)c2n1
560 nM
